Listed here: items and their measured Km.
- Substrate: O=[N+]([O-])c1ccc2c(c1)OCO2
- assay notes: purified protein
- Type: biochemical, Cyclocybe aegerita
- assay setup: H2O2 1 mM, potassium phosphate 50 mM pH 7.0, 20% v/v acetonitrile
Give your result in µM as a bare value.

protein | recorded value
PaDa-I (AaeUPO variant) (Cyclocybe aegerita; F119A/F234A/F354L/I291V/L110F/V100A/V118I) (protein, laboratory-evolved secreted variant; plasmid pJRoC30-PaDa-I in Saccharomyces cerevisiae BJ5465, purified; only F311L given; recalled mature changes V57A/L67F/V75I/I248V/F311L (plus signal peptide F12Y/A14V/R15G/A21D); heme-thiolate, N-glycosylated) EPGLPPGPLENSSAKLVNDEAHPWKPLRPGDIRGPCPGLNTLASHGYLPRNGVATPAQIINAVQEGFNFDNQAAIAATYAAHLVDGNLITDLLSIGRKTRLTGPDPPPPASVGGLNEHGTFEGDASMTRGDAFFGNNHDFNETLFEQLVDYSNRFGGGKYNLTVAGELRFKRIQDSIATNPNFSFVDFRFATAYGETTFPANLFVDGRRDDGQLDMDAARSFFQFSRMPDDFFRAPSPRSGTGVEVVVQAHPMQPGRNVGKINSYTVDPTSSDFSTPCLMYEKFVNITVKSLYPNPTVQLRKALNTNLDFLFQGVAAGCTQVFPYGRD | 1389
PaDa-I (AaeUPO variant) (Cyclocybe aegerita; F119L/F354L/I291V/L110F/V100A/V118I) (protein, laboratory-evolved secreted variant; plasmid pJRoC30-PaDa-I in Saccharomyces cerevisiae BJ5465, purified; only F311L given; recalled mature changes V57A/L67F/V75I/I248V/F311L (plus signal peptide F12Y/A14V/R15G/A21D); heme-thiolate, N-glycosylated) EPGLPPGPLENSSAKLVNDEAHPWKPLRPGDIRGPCPGLNTLASHGYLPRNGVATPAQIINAVQEGFNFDNQAAILATYAAHLVDGNLITDLLSIGRKTRLTGPDPPPPASVGGLNEHGTFEGDASMTRGDAFFGNNHDFNETLFEQLVDYSNRFGGGKYNLTVAGELRFKRIQDSIATNPNFSFVDFRFFTAYGETTFPANLFVDGRRDDGQLDMDAARSFFQFSRMPDDFFRAPSPRSGTGVEVVVQAHPMQPGRNVGKINSYTVDPTSSDFSTPCLMYEKFVNITVKSLYPNPTVQLRKALNTNLDFLFQGVAAGCTQVFPYGRD | 890

With those in mind, consider the next protein.
Requested read-out: Km. Entry: PaDa-I (AaeUPO variant) (Cyclocybe aegerita; F234A/F354L/I291V/L110F/V100A/V118I) (protein, laboratory-evolved secreted variant; plasmid pJRoC30-PaDa-I in Saccharomyces cerevisiae BJ5465, purified; only F311L given; recalled mature changes V57A/L67F/V75I/I248V/F311L (plus signal peptide F12Y/A14V/R15G/A21D); heme-thiolate, N-glycosylated) EPGLPPGPLENSSAKLVNDEAHPWKPLRPGDIRGPCPGLNTLASHGYLPRNGVATPAQIINAVQEGFNFDNQAAIFATYAAHLVDGNLITDLLSIGRKTRLTGPDPPPPASVGGLNEHGTFEGDASMTRGDAFFGNNHDFNETLFEQLVDYSNRFGGGKYNLTVAGELRFKRIQDSIATNPNFSFVDFRFATAYGETTFPANLFVDGRRDDGQLDMDAARSFFQFSRMPDDFFRAPSPRSGTGVEVVVQAHPMQPGRNVGKINSYTVDPTSSDFSTPCLMYEKFVNITVKSLYPNPTVQLRKALNTNLDFLFQGVAAGCTQVFPYGRD
525
